These measurements were taken from patent US12258327B2.

biological target: EGFR L858R/T790M/C797S (Homo sapiens, UniProt P00533, C797S/L858R/T790M); assay: Biochemical EGFR kinase assay (Lance Ultra TR-FRET), triple mutant L858R/T790M/C797S; settings: Km ATP; read-out: IC50 L858R/T790M/C797S (nM) Km ATP
Sequence (P00533 25-1210 T790M/C797S/L858R): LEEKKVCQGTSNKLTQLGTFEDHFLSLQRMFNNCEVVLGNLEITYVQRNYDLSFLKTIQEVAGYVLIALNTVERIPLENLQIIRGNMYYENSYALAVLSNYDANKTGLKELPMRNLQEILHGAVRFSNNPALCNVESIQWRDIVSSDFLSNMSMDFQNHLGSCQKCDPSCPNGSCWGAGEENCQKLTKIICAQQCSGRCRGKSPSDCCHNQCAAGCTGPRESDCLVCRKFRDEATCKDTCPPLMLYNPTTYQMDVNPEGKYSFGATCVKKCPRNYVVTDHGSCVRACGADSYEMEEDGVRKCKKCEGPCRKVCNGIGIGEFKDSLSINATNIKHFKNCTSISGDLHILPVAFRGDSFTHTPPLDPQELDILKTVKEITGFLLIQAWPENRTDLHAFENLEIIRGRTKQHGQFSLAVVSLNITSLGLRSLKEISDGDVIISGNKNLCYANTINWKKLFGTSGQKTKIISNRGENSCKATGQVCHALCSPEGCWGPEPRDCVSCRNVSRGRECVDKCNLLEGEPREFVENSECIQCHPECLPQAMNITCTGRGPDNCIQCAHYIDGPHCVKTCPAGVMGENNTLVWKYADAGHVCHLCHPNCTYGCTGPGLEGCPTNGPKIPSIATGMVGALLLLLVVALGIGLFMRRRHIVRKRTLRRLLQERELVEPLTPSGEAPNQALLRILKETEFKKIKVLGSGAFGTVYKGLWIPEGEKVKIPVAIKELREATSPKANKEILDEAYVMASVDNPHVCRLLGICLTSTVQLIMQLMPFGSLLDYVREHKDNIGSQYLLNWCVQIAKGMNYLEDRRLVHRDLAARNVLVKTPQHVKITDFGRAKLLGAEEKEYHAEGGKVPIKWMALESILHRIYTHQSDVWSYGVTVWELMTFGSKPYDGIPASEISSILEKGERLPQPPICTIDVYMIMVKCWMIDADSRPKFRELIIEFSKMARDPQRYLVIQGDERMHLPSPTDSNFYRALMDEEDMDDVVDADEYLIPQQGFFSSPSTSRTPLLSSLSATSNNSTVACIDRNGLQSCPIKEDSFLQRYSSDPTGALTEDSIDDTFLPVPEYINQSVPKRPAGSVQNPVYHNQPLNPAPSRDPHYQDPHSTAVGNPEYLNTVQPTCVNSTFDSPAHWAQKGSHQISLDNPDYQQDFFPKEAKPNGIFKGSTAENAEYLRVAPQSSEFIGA

>  <COMPOUND>
O=S(=O)(C1CC1)n1cc(-c2nccc(Nc3cc(N[C@H]4CC[C@@H](CN5CCC5)CC4)c(-c4ccn(C(F)F)n4)cn3)n2)cn1

>  <TEST_SYSTEM>
EGFR L858R/T790M/C797S (Homo sapiens, UniProt P00533, C797S/L858R/T790M)

>  <UNIT_TEXT>
nM

>  <IC50>
0.1

$$$$
>  <COMPOUND>
O=S(=O)(C1CC1)n1cc(-c2nccc(Nc3cc(N[C@H]4CC[C@@H](CCO)CC4)c(-c4ccn(C(F)F)n4)cn3)n2)cn1

>  <TEST_SYSTEM>
EGFR L858R/T790M/C797S (Homo sapiens, UniProt P00533, C797S/L858R/T790M)

>  <UNIT_TEXT>
nM

>  <IC50>
0.5

$$$$
>  <COMPOUND>
COCC#Cc1nccc(Nc2cc(NC3CCC(C)(O)CC3)c(-c3ccn(C(F)F)n3)cn2)n1 (stereo not shown)

>  <TEST_SYSTEM>
EGFR L858R/T790M/C797S (Homo sapiens, UniProt P00533, C797S/L858R/T790M)

>  <UNIT_TEXT>
nM

>  <IC50>
5.9

$$$$
>  <COMPOUND>
C[C@]1(O)CC[C@@H](Nc2cc(Nc3ccnc(-c4cnn(CC(F)F)c4)n3)ncc2-n2ccc(C(F)F)n2)CC1

>  <TEST_SYSTEM>
EGFR L858R/T790M/C797S (Homo sapiens, UniProt P00533, C797S/L858R/T790M)

>  <UNIT_TEXT>
nM

>  <IC50>
0.8

$$$$
>  <COMPOUND>
Cn1cc(-c2cnc(Nc3ccnc(-c4cnn(S(=O)(=O)C5CC5)c4)n3)cc2C#CC(C)(C)O)cn1

>  <TEST_SYSTEM>
EGFR L858R/T790M/C797S (Homo sapiens, UniProt P00533, C797S/L858R/T790M)

>  <UNIT_TEXT>
nM

>  <IC50>
0.8

$$$$
>  <COMPOUND>
Cn1ccc(-c2cnc(Nc3ccnc(-c4cnn(S(=O)(=O)C5CC5)c4)n3)cc2NCC2(CO)COC2)n1

>  <TEST_SYSTEM>
EGFR L858R/T790M/C797S (Homo sapiens, UniProt P00533, C797S/L858R/T790M)

>  <UNIT_TEXT>
nM

>  <IC50>
0.1

$$$$
>  <COMPOUND>
Cn1ccc(-c2cnc(Nc3ccnc(-c4cnn(S(=O)(=O)C5CC5)c4)n3)cc2NCC2CCC(NCCF)CC2)n1 (stereo not shown)

>  <TEST_SYSTEM>
EGFR L858R/T790M/C797S (Homo sapiens, UniProt P00533, C797S/L858R/T790M)

>  <UNIT_TEXT>
nM

>  <IC50>
0.1

$$$$

---

biological target: EGFR L858R/C797S (Homo sapiens, UniProt P00533, C797S/L858R); experiment: Biochemical EGFR kinase assay (Lance Ultra TR-FRET), double mutant L858R/C797S; settings: Km ATP; read-out: IC50 L858R/C797S (nM) Km ATP
Sequence (P00533 25-1210 C797S/L858R): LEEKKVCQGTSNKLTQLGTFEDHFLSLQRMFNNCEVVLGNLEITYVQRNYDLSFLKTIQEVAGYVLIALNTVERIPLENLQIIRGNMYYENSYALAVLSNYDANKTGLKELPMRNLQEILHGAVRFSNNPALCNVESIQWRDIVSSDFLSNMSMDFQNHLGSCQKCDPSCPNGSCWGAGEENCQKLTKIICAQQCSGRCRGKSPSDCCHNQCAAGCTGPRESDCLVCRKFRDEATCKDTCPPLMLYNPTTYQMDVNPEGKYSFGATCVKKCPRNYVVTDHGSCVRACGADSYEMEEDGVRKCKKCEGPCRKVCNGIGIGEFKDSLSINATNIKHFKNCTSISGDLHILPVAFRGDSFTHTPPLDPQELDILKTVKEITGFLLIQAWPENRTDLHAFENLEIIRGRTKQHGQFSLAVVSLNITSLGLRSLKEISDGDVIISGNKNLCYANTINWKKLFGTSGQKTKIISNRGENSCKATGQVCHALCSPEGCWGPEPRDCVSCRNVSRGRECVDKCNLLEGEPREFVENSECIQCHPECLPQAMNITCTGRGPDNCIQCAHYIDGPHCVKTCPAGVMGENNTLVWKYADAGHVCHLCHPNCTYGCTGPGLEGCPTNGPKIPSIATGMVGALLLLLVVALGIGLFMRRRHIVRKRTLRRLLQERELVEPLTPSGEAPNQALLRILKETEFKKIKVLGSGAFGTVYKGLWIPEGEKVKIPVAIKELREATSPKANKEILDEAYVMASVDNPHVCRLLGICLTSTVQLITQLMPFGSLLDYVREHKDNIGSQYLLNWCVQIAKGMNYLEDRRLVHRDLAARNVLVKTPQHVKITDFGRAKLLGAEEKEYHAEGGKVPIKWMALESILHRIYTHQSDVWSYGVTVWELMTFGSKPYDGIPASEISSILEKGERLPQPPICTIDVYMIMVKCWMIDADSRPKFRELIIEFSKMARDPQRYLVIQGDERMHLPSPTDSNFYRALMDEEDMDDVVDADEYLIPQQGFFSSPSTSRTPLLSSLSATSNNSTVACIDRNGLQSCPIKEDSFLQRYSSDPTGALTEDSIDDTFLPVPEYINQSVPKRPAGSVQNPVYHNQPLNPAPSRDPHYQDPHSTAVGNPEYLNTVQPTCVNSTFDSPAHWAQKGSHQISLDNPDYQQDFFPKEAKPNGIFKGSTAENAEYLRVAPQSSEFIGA
// NB: equality with 5 nM counts as no (0); only IC50 strictly below is yes (1)

>  <COMPOUND_STRUCTURE>
C[C@]1(O)CC[C@@H](Nc2cc(Nc3ccnc(-c4cnc5c(c4)NCCO5)n3)ncc2-c2ccn(C(F)F)n2)CC1

>  <CATEGORY>
no (0)

$$$$
>  <COMPOUND_STRUCTURE>
CC(C)(O)[C@H]1CC[C@@H](Nc2cc(Nc3ccnc(-c4cnn(S(=O)(=O)C5CC5)c4)n3)ncc2-c2ccn(C3COC3)n2)CC1

>  <CATEGORY>
yes (1)

$$$$
>  <COMPOUND_STRUCTURE>
Cc1nn(-c2cnc(Nc3ccnc(-c4cnn(S(=O)(=O)C5CC5)c4)n3)cc2N[C@H]2CC[C@@](C)(O)CC2)cc1C(F)(F)F

>  <CATEGORY>
no (0)

$$$$
>  <COMPOUND_STRUCTURE>
CN1CCN(c2nc(-c3cnc(Nc4ccnc(-c5cnn(S(=O)(=O)C6CC6)c5)n4)cc3N[C@H]3CC[C@@](C)(O)CC3)cs2)CC1

>  <CATEGORY>
yes (1)

$$$$
>  <COMPOUND_STRUCTURE>
CN(C)C(=O)[C@H]1CC[C@@H](Nc2cc(Nc3ccnc(-c4cnn(S(=O)(=O)C5CC5)c4)n3)ncc2-c2ccn(C)n2)CC1

>  <CATEGORY>
yes (1)

$$$$
>  <COMPOUND_STRUCTURE>
CC(C)Nc1cc(Nc2ccnc(-c3cnn(S(=O)(=O)C4CC4)c3)n2)ncc1-c1ccn(CC(F)F)n1

>  <CATEGORY>
yes (1)

$$$$
